- Tested on: PRP4
- condition_description: concentration: 1 μM, replicates: in singlicate; n = 1

compound | subject_of_test | %Inh (%)
CCn1c(-c2ccccc2)nc2cnccc21 | PRP4 | 7
Nc1cccc(-c2ccc3c(N)n[nH]c3c2)n1 | PRP4 | 12
Cn1cncc1C(=O)NC1CCN(c2ccnc(Nc3ccc(F)cc3)n2)C1 (stereo not drawn) | PRP4 | 35
CS(=O)(=O)CCNCc1nc(-c2ccc3ncnc(Nc4ccc(OCc5ccccc5)c(Cl)c4)c3c2)cs1.Cl | PRP4 | 51
CNc1cc(-c2ccc3c(N)n[nH]c3c2)nc(N)n1 | PRP4 | 0
COc1ccc(CSc2nnc(-c3ccc4ncsc4c3)o2)cc1C(F)(F)F | PRP4 | 20
Cn1cncc1-c1cc2c(Nc3ccc(OCc4ccccc4)cc3)ncnc2cn1 | PRP4 | 23
COC(=O)c1cccc(NC(=O)NC2CCN(c3ccnc(Nc4ccc(OC)cc4)n3)C2)c1 (stereo not drawn) | PRP4 | 59
COc1cccc(CNC(=O)NC2CCN(c3ccnc(Nc4ccc(F)cc4)n3)C2)c1 (stereo not drawn) | PRP4 | 7

----------
- System: TEC
- condition_description: concentration: 1 μM, replicates: in singlicate; n = 1
Field: label. Allowed values: 1 (yes) (%Inh < 10%) or 0 (no) (%Inh >= 10%).

molecule | subject_of_test | discrete_label
Cc1ccc(NC(=O)Nc2ccc(Cl)c(C(F)(F)F)c2)cc1-c1ccc(C(=O)Nc2ccncc2)cc1 | TEC | 1 (yes)
COc1cc2ncnc(Nc3cccc(Br)c3)c2cc1OC.Cl | TEC | 1 (yes)
COc1ccc(Nc2nccc(N3CCC(NC(=O)C(C)c4ccc(Cl)cc4)C3)n2)cc1 (stereo not drawn) | TEC | 0 (no)
CNc1cc(-c2ccc3c(N)n[nH]c3c2)nc(N)n1 | TEC | 0 (no)
O=C(Nc1n[nH]c2nc(-c3cccs3)c(Br)cc12)C1CCCC1 | TEC | 1 (yes)
O=C(Nc1n[nH]c2cc(-c3ccsc3)ccc12)C1CC1 | TEC | 0 (no)
CS(=O)(=O)Cc1ccc(Nc2nccc(-c3c(-c4cccc(NC(=O)C5CCCCC5)c4)nn4ncccc34)n2)cc1 | TEC | 0 (no)
CC(C)c1ccc(O)cc1Nc1ccnc2ccc(C(F)(F)F)cc12 | TEC | 1 (yes)
Cc1ccccc1-c1cc(-c2c[nH]nc2-c2ccccn2)ccn1 | TEC | 0 (no)

----------
- Tested on: p38-delta
- condition_description: concentration: 1 μM, replicates: in singlicate; n = 1

compound | unit_info | %Inh
COC(=O)c1cccc(NC(=O)NC2CCN(c3ccnc(Nc4ccc(OC)cc4)n3)C2)c1 (stereo not shown) | % | 6
Nc1nccc(-c2c(-c3ccc(F)cc3)ncn2C2CCN(Cc3ccccc3)CC2)n1 | % | 0
CS(=O)(=O)CCNCc1nc(-c2ccc3ncnc(Nc4ccc(OCc5ccccc5)c(Cl)c4)c3c2)cs1.Cl | % | 37
COc1ccc(Nc2nccc(N3CCC(NC(=O)C(C)c4ccc(Cl)cc4)CC3)n2)cc1 (stereo not shown) | % | 27

----------
// reported %Inh for each item listed
- System: PIK3CA
- condition_description: concentration: 1 μM, replicates: in singlicate; n = 1
recorded_metric: %Inh (%)

line_notation | measured_number
NS(=O)(=O)c1cccc(N/C=C2\C(=O)Nc3ccc(S(=O)(=O)Cc4c(Cl)cccc4Cl)cc32)c1 | 16
Cn1cncc1-c1cc2c(Nc3ccc(OCc4ccccc4)cc3)ncnc2cn1 | 0
Nc1ncnc2occ(-c3ccc4c(c3)CCN4C(=O)Cc3cc(F)ccc3F)c12 | 0
Cc1ccc(NC(=O)Nc2ccc(Cl)c(C(F)(F)F)c2)cc1-c1ccc(C(=O)Nc2ccncc2)cc1 | 9
COc1ccc(Nc2nccc(-c3ccc(NC(=O)c4cc5cc(F)ccc5[nH]4)cc3)n2)cc1 | 0
CCn1c(-c2c(N)noc2C)nc2cnccc21 | 0
Fc1ccc(-c2nc[nH]c2-c2ccncc2)cc1 | 12
Cl.Cl.Cl.N#Cc1ccc(CCNc2nccc(-c3cccc(CN4CCNCC4)c3)n2)cc1 | 1

----------
// reported Kd for each item listed
- Test system: MEK5;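 further: kd values determined as follow-up on hits from a single-replicate KINOMEscan panel screen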
- Construct: gene MAP2K5
recorded_metric: Kd (nM)

molecule | subject_of_test | recorded_metric | measured_number
CS(=O)(=O)CCNCc1nc(-c2ccc3ncnc(Nc4ccc(OCc5ccccc5)c(Cl)c4)c3c2)cs1.Cl | MEK5 | Kd | 700
COC(=O)C(NC(=O)NC1CCN(c2ccnc(Nc3ccc(F)cc3)n2)C1)c1ccccc1 (centres unmarked) | MEK5 | Kd | 270
CS(=O)(=O)Cc1ccc(Nc2nccc(-c3c(-c4cccc(NC(=O)C5CCCCC5)c4)nn4ncccc34)n2)cc1 | MEK5 | Kd | 35
COc1cc2ncnc(Nc3cccc(Br)c3)c2cc1OC.Cl | MEK5 | Kd | 700
Cn1cncc1-c1cc2c(Nc3ccc(OCc4ccccc4)cc3)ncnc2cn1 | MEK5 | Kd | 140

----------
// reported %Inh for each item listed
- Tested on: WNK3
- condition_description: concentration: 1 μM, replicates: in singlicate; n = 1

compound | subject_of_test | %Inh (%)
Cc1ccc(NC(=O)Nc2ccccc2)cc1-c1ccc(C(=O)Nc2ccncc2)cc1 | WNK3 | 0
Cc1ccc(-c2nc(Nc3ccncc3)c3ccccc3n2)s1 | WNK3 | 0
Cn1cncc1-c1cc2c(Nc3ccc(OCc4ccccc4)cc3)ncnc2cn1 | WNK3 | 25
COC(=O)c1cccc(NC(=O)NC2CCN(c3ccnc(Nc4ccc(OC)cc4)n3)C2)c1 (stereo not drawn) | WNK3 | 51
CN1c2ccc(-c3ccc(C(N)=O)cc3)cc2-c2[nH]ncc2S1(=O)=O | WNK3 | 4
Cc1ccc(NC(=O)Nc2ccccc2F)cc1-c1ccc(C(=O)Nc2ccncc2)cc1 | WNK3 | 0
CNc1cc(-c2ccc3c(N)n[nH]c3c2)nc(N)n1 | WNK3 | 19
COc1ccc(Nc2nccc(NCCNC(=O)Nc3cc(C)ccc3C)n2)cc1 | WNK3 | 0
O=C(Nc1n[nH]c2cc(-c3ccsc3)ccc12)C1CC1 | WNK3 | 18
Cc1c(Cn2c3ccccc3n3c(=O)cc(N4CCOCC4)nc23)cccc1C(F)(F)F | WNK3 | 0
Nc1ncnc2occ(-c3ccc4c(c3)CCN4C(=O)Cc3cc(F)ccc3F)c12 | WNK3 | 38
Cn1cncc1C(=O)NC1CCN(c2ccnc(Nc3ccc(F)cc3)n2)C1 (stereo not drawn) | WNK3 | 22
Fc1ccc(-c2nc3n(c2-c2ccncc2)CCS3)cc1 | WNK3 | 13
CS(=O)(=O)CCNCc1nc(-c2ccc3ncnc(Nc4ccc(OCc5ccccc5)c(Cl)c4)c3c2)cs1.Cl | WNK3 | 45
COc1nccc(-c2c(-c3ccc(F)cc3)ncn2CCCN2CCOCC2)n1 | WNK3 | 0
COc1ccc(CSc2nnc(-c3ccc4c(c3)CCO4)o2)cc1 | WNK3 | 0
Fc1ccc(-c2nc[nH]c2-c2ccncc2)cc1 | WNK3 | 9
O=C(Nc1n[nH]c2nc(-c3cccs3)c(Br)cc12)C1CCCC1 | WNK3 | 0
Cc1ccc(NC(=O)c2ccc(Cl)cc2)cc1-c1ccc(C(=O)Nc2ccncc2)cc1 | WNK3 | 31
COc1cccc(C2=C(Nc3cc(Cl)c(O)c(Cl)c3)C(=O)NC2=O)c1 | WNK3 | 16
CC(=O)c1c(C)c2cnc(Nc3ccn(C)n3)nc2n(C2CCCC2)c1=O | WNK3 | 0
O=C(Nc1n[nH]c2nc(-c3cccs3)c(Br)cc12)C1CC1 | WNK3 | 0
Cc1ccc(NC(=O)Nc2ccc(Cl)c(C(F)(F)F)c2)cc1-c1ccc(C(=O)Nc2ccncc2)cc1 | WNK3 | 0
O=C(Nc1n[nH]c2nc(-c3ccco3)c(Br)cc12)C1CCN(Cc2ccccc2)C1.O=C(O)[C@H](O)[C@@H](O)C(=O)O (stereo not drawn) | WNK3 | 0
CNC(=O)c1ccc(C)c(-n2c(C)cc(OCc3ccc(F)cc3F)c(Br)c2=O)c1 | WNK3 | 0
COC(=O)C(Cc1ccccc1)NC(=O)NC1CCN(c2ccnc(Nc3ccc(F)cc3)n2)C1 (stereo not drawn) | WNK3 | 38
Cc1cccc2c(-c3ccncn3)c(-c3ccc(F)cc3)nn12 | WNK3 | 22
c1ccc(-c2ccnc3[nH]ccc23)cc1 | WNK3 | 48
COc1cccc(CNC(=O)NC2CCN(c3ccnc(Nc4ccc(F)cc4)n3)C2)c1 (stereo not drawn) | WNK3 | 5
Cn1cnc2c(N)ncnc21 | WNK3 | 0
COc1ccc(Nc2nccc(N3CCC(NC(=O)C(C)c4ccc(Cl)cc4)C3)n2)cc1 (stereo not drawn) | WNK3 | 8
CC[C@@H]1CO[C@H](C(=O)Nc2ccccc2)CN1c1cc(-c2ccc3c(N)n[nH]c3c2)nc(NC)n1 | WNK3 | 5
CC(=O)c1c(C)c2cnc(Nc3ccc(N4CCNCC4)cn3)nc2n(C2CCCC2)c1=O | WNK3 | 0
CC(C)c1cc(-c2ccc3c(N)n[nH]c3c2)nc(N)n1 | WNK3 | 3
Nc1nccc(-c2c(-c3ccc(F)cc3)ncn2C2CCN(Cc3ccccc3)CC2)n1 | WNK3 | 0
COc1ccc(Nc2nccc(-c3ccc(NC(=O)c4cc5cc(F)ccc5[nH]4)cc3)n2)cc1 | WNK3 | 18
